System: H2122
protocol.description: Proliferation Assays (NSCLC cell line sensitivity)
Format: cell-based
particulars: ACA, KRAS MUT, EGFR WT
pIC50: −log10 of the molar value.
measured.quantity: pIC50

INSERT INTO measurements (smiles_data, experimental_result) VALUES
  ('CO[C@H]1CC[C@H](N2C(=O)CNc3ncc(-c4ccc(C(C)(C)O)nc4)nc32)CC1', 5.80);

* * *

System: H226
protocol.description: Proliferation Assays (NSCLC cell line sensitivity)
Type: cell-based
particulars: Homo sapiens, NCI-H226, SQC, KRAS WT, EGFR WT
pIC50: −log10 of the molar value.
measured.quantity: pIC50

INSERT INTO assay_data (smiles_data, measured_quantity, experimental_result) VALUES
  ('C#Cc1cccc(Nc2ncnc3cc(OCCOC)c(OCCOC)cc23)c1', 'pIC50', '< 5.00');

* * *

Test system: H1703
protocol.description: Proliferation Assays (NSCLC cell line sensitivity)
Type: cell-based
particulars: SCC, KRAS WT, EGFR WT
pIC50: −log10 of the molar value.
measured.quantity: pIC50

INSERT INTO results (compound, experimental_result) VALUES
  ('CO[C@H]1CC[C@H](N2C(=O)CNc3ncc(-c4ccc(C(C)(C)O)nc4)nc32)CC1 [Compound 1]', 5.79);

* * *

Tested on: H3255
protocol.description: Proliferation Assays (NSCLC cell line sensitivity)
Type: cell-based
particulars: Homo sapiens, NCI-H3255, ACA, EGFR L858R
measured.quantity: IC50 (nM)

INSERT INTO results (smiles_data, tested_on, measured_quantity, experimental_result) VALUES
  ('C#Cc1cccc(Nc2ncnc3cc(OCCOC)c(OCCOC)cc23)c1', 'H3255', 'IC50', 205);
